Molecular target: T1, human sodium-dependent phosphate transporter 2B (NaPi2b) (human, UniProt O95436 1-690)
T1 construct: UniProt ID is given as 095436 [sic]; also called hNaPi2b; Hu NaPi2b
T1 sequence: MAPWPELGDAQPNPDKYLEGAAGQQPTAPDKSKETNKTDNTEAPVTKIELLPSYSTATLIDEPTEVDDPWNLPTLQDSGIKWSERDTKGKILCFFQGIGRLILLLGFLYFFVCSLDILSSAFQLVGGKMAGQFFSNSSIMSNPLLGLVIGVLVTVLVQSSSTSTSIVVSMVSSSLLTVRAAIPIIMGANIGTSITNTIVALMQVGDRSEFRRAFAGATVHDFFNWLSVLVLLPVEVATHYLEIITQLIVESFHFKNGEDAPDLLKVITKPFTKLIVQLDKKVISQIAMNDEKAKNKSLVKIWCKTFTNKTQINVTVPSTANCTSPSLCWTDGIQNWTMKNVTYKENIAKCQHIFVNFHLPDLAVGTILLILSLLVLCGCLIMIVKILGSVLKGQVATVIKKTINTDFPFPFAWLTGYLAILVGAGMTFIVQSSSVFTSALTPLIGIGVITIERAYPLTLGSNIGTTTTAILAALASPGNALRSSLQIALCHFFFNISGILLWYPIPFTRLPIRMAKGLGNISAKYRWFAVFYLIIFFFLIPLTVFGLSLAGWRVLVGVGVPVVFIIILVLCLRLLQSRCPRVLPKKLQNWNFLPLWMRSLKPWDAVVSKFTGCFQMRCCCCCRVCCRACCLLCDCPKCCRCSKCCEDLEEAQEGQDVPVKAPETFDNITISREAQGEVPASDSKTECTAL
Experiment: flow cytometry, IGROV-1 cells (endogenous NaPi2b), 24 h at 4 °C
value_kind: Bmax (MFI)

* v29449 humanized anti-NaPi2b antibody (H4L3) (antibody, human IgG1, kappa, V domains shown, Full-size IgG1/kappa) VH: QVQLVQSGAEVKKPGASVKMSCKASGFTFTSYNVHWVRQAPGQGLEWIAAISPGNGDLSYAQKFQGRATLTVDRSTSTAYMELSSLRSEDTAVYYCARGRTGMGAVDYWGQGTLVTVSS VL: DVQMTQSPSSLSASVGDRVTITCRASQDVYSYLNWYQQKPGKAVKLLIYYTSRLQSGVPSRFSGSGSGTDYTLTISSLQPEDIATYYCQQYNIFPWTFGQGTKLEIKR | 44500
* v29458 humanized anti-NaPi2b antibody (H3L1) (antibody, human IgG1, kappa, V domains shown) VH: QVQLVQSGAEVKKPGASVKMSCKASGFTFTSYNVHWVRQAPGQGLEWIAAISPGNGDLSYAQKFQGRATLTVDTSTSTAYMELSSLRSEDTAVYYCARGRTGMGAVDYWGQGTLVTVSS VL: DIQMTQSPSSLSASVGDRVTITCRASQDVYSYLNWYQQKPGKAPKLLIYYTSRLQSGVPSRFSGSGSGTDFTLTISSLQPEDFATYYCQQYNIFPWTFGQGTKLEIKR | 40800

The values you see were collected from patent US20250277030A1.
